# Assay Remarks: A549 cell viability effects, profiling panel, calcein-AM fluorescence, 48 h, basal (AID 1162); note: test concentration not given here
# Stated Conditions: higher = more signal
Endpoint Name: z-score
Respond with the number and no other words.

Exam item: Given C=CCNC(=O)[C@@H]1[C@H]2C(=O)O[C@H](c3ccccc3)[C@H](c3ccccc3)N2[C@H](c2ccccc2OCCO)[C@@]12C(=O)N(C(=O)OCCOC)c1ccc(C#CCCO)cc12 , state its recorded z-score.
Marked response: 0.614

Exam item: Next record, please: COCCOC(=O)N1C(=O)[C@@]2(c3cc(C#CC4=CCCCC4)ccc31)[C@H](c1ccc(OCCO)cc1)N1[C@H](c3ccccc3)[C@H](c3ccccc3)OC(=O)[C@H]1[C@@H]2C(=O)N1CCCCCCC1
Marked response: 0.508

Exam item: Follow-up item: CCOC(=O)C1=CCC(c2cc3ccccc3[nH]2)N(S(=O)(=O)c2ccccc2[N+](=O)[O-])C1 (centres undefined)
Marked response: 0.0857

Exam item: // same read-out, input: C=C(COC)C(=O)CC[C@@H](OC(=O)c1cccnc1)c1cccc(OCCO)c1
Marked response: -0.0547

Exam item: Quick one: C=CCC(OC(C)=O)[C@@H]1[C@@H](N(Cc2ccc(-c3cccc(C(F)(F)F)c3)o2)C(=O)Cc2ccc(F)cc2)c2cc(OCCCO)ccc2N1C(=O)c1ccc2ccccc2c1 (some centres undefined)
Marked response: -0.292

Exam item: Try COc1cc2c(cc1O)C(c1ccc(CN3CCCC3)cc1)N(Cc1cccc(OC(F)(F)F)c1)CC2 (centres undefined) next.
Marked response: -4.78

Exam item: Same lookup for CC(C)C(=C=CC[C@@H](O)c1ccc(OCCO)cc1)CCO , please.
Marked response: -0.45

Exam item: Could you do the same for CCCCC(O)C1C=CC2C(=O)NC(=O)C2N1Nc1ccc(Cl)cc1Cl (centres undefined) , please?
Marked response: -1.99

Exam item: // same read-out, input: COc1ccc(CCNC(=O)[C@@H]2c3ccccc3C(=O)N(CC34CC5CC(CC(C5)C3)C4)[C@H]2c2ccc(CO)cc2)cc1
Marked response: 0.263

Exam item: Now consider C=CCOC(=O)[C@@H]1[C@H]2C(=O)O[C@H](c3ccccc3)[C@H](c3ccccc3)N2[C@H](c2ccc(OCCOC(=O)[C@H]3C[C@H]4C(=O)NCC(=O)N4[C@H]3c3ccc(O)cc3)cc2)[C@@]12C(=O)Nc1ccc(I)cc12 and answer again.
Marked response: -0.441

Exam item: Please give the result for CC(C)C[C@H]1NC(=O)[C@@]23C(=O)N[C@@H](Cc4ccccc4)C2[C@H](C)[C@@]2(C)O[C@H]2C3/C=C/C/C=C\CNC(=O)[C@@H]2CCCN2C1=O (some centres undefined) too.
Marked response: 0.0246

Exam item: Next record, please: COc1ccc([Si](C)(C)[C@H]2[C@H](CCO)O[C@@]3(C(=O)N(Cc4ccc(N5CCOC5=O)cc4)c4ccccc43)[C@@H]2C)cc1
Marked response: -0.108

Exam item: // repeat for C=C(/C(=C/C[C@@H](OC(C)=O)c1ccccc1OCCO)c1cc(C(=O)OC)ccc1OC)C(C)C and report
Marked response: 0.793

Exam item: Lookup C=CCC(OC(C)=O)[C@@H]1[C@@H](N(Cc2ccc(-c3cccc(C(F)(F)F)c3)o2)C(=O)c2cccc3ccccc23)c2cc(OCCCO)ccc2N1C(=O)c1ccc2ccccc2c1 (some centres undefined)
Marked response: 0.281
